# ASSAY TEXT: Pharmacokinetics in orchidectomized male rats (plasma, Day 14)
# Format: in vivo
# EXPERIMENTAL CONTEXT: male, rat, po, 0.01 mg/kg, ORX male rats, Day 14, 0.01 mg/kg, read-out: AUC6
READOUT: AUC (ng·h/mL)
Kindly provide the numeric value in ng·h/mL only, without the unit symbol.

Ask: Given N#Cc1ccc(N2CCC[C@@H]2[C@@H](O)C(F)(F)F)cc1C(F)(F)F , state its recorded AUC.
Reply: 4

----------
# ASSAY TEXT: Pharmacokinetics in Sprague Dawley rats, repeat oral administration for 15 days
# Type: in vivo, rat
# EXPERIMENTAL CONTEXT: male, Sprague-Dawley, rat, plasma, po, 3 mg/kg, SD rats, oral gavage once daily, Day 15, 3 mg/kg, Male; read-out: AUC24
READOUT: AUC (ng·h/mL)
Kindly provide the numeric value in ng·h/mL only, without the unit symbol.

Ask: Given N#Cc1ccc(N2CCC[C@@H]2[C@@H](O)C(F)(F)F)cc1C(F)(F)F , state its recorded AUC.
Reply: 876

----------
# Tested on: human skeletal α-actin promoter activity
# ASSAY TEXT: Skeletal α-actin promoter assay (C2C12 cells transfected with human AR)
# Format: cell-based
# EXPERIMENTAL CONTEXT: C2C12, read-out: EC50, activation of skeletal α-actin promoter
Task for the reader: assign each of the following compounds its reported EC50.
Kindly provide the numeric value in nM only, without the unit symbol.

Ask: Given O=[N+]([O-])c1ccc(N2CCC[C@@H]2[C@H](O)C(F)(F)F)cc1C(F)(F)F , state its recorded EC50.
Reply: 85.6

Ask: Now give it for N#Cc1ccc(N2CCC[C@@H]2[C@@H](O)C(F)(F)F)cc1C(F)(F)F too.
Reply: 8.7

Ask: Now give it for O=[N+]([O-])c1ccc(N2CCC[C@@H]2[C@@H](O)C(F)(F)F)cc1C(F)(F)F too.
Reply: 45.2

----------
# ASSAY TEXT: Pharmacokinetics in Sprague Dawley rats, repeat oral administration for 15 days
# Type: in vivo, rat
# EXPERIMENTAL CONTEXT: female, Sprague-Dawley, rat, plasma, po, 10 mg/kg, SD rats, oral gavage once daily, Day 15, 10 mg/kg, Female, n = 4
READOUT: AUC(0-inf)
I'd appreciate it if you included the unit after the number.

Ask: Given N#Cc1ccc(N2CCC[C@@H]2[C@@H](O)C(F)(F)F)cc1C(F)(F)F [Compound 102] , state its recorded AUC(0-inf).
Reply: 4540 ng·h/mL
